Property: Fold Difference (Parent vs. Derivative); scope: individual compounds
# assay.system: cardiac L-type calcium channel (Homo sapiens)
# Construct: Human myocytes were obtained from specimens of human right atrial appendage obtained during surgery; endogenous in cells; host or cells: primary human atrial myocytes isolated from right atrial appendage
# Sequence (Q13936 whole entry): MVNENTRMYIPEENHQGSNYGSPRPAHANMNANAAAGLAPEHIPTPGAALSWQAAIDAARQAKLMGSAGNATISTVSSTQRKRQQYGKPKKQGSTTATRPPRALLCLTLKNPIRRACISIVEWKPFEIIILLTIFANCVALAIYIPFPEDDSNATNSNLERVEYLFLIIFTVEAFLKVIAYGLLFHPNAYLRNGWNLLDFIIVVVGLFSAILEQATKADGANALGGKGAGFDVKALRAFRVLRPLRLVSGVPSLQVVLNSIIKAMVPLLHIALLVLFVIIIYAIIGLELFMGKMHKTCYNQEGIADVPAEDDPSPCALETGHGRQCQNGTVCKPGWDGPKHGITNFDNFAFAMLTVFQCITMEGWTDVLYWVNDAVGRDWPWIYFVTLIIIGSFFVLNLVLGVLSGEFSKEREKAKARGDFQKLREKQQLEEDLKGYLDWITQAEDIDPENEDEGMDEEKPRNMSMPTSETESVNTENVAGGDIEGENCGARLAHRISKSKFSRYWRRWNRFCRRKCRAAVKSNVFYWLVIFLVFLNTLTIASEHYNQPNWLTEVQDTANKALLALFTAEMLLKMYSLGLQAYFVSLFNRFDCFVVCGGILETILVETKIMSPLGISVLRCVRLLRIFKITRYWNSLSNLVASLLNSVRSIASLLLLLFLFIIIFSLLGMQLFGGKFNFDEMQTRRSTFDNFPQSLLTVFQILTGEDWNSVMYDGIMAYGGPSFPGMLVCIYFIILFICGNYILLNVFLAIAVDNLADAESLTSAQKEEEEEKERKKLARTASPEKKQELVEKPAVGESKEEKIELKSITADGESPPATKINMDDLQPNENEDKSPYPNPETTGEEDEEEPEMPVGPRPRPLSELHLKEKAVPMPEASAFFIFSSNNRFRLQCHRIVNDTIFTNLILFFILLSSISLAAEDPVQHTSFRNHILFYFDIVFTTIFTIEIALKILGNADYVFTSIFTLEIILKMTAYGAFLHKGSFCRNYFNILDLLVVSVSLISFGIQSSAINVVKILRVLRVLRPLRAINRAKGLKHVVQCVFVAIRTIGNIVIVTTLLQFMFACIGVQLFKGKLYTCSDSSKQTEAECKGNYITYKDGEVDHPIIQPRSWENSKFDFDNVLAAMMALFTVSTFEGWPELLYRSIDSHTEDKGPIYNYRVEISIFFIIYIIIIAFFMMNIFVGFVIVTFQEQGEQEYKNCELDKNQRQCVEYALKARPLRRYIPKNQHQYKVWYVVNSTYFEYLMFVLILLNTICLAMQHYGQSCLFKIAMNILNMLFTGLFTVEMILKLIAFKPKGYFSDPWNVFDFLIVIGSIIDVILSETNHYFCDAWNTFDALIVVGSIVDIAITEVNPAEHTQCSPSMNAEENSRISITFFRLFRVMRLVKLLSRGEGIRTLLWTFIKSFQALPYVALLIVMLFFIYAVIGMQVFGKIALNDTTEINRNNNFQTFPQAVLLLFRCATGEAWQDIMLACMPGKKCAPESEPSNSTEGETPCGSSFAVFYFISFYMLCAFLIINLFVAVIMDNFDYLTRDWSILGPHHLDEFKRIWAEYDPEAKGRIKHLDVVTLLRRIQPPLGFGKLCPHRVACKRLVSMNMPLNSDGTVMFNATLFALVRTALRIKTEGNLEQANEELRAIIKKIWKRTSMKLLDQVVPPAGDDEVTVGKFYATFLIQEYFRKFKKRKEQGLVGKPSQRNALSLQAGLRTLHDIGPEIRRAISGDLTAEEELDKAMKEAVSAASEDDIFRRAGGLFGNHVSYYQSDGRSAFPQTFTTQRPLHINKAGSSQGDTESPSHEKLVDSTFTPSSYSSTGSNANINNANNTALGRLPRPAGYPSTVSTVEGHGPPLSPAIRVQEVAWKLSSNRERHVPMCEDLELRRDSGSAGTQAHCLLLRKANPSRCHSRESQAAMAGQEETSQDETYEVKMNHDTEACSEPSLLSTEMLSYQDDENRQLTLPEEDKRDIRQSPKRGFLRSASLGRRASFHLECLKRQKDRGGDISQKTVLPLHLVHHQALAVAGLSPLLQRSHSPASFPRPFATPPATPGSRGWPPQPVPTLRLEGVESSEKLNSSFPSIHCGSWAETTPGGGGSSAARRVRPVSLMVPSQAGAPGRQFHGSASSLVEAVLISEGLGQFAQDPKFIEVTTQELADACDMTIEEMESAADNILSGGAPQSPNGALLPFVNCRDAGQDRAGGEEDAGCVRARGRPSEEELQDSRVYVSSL
# Sequence (Q08289 whole entry partner): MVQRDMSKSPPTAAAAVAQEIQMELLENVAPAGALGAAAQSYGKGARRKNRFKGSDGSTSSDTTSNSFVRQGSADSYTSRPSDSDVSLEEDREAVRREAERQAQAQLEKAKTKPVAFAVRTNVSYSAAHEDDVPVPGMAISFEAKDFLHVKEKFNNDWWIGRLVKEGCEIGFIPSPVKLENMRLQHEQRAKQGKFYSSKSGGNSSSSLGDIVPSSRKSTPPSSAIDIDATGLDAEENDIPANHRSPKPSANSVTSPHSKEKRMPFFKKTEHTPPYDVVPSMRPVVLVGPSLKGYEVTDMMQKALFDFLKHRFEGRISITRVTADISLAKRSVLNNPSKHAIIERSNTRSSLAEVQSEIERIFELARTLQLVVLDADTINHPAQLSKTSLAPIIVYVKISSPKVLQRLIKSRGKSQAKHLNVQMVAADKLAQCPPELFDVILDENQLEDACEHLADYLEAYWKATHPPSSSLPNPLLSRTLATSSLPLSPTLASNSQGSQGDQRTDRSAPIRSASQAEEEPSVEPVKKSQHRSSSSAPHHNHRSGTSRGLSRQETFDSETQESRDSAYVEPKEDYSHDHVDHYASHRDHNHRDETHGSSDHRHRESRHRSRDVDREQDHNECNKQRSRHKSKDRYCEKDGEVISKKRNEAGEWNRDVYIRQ
# Sequence (P54289 25-956 partner limits assumed): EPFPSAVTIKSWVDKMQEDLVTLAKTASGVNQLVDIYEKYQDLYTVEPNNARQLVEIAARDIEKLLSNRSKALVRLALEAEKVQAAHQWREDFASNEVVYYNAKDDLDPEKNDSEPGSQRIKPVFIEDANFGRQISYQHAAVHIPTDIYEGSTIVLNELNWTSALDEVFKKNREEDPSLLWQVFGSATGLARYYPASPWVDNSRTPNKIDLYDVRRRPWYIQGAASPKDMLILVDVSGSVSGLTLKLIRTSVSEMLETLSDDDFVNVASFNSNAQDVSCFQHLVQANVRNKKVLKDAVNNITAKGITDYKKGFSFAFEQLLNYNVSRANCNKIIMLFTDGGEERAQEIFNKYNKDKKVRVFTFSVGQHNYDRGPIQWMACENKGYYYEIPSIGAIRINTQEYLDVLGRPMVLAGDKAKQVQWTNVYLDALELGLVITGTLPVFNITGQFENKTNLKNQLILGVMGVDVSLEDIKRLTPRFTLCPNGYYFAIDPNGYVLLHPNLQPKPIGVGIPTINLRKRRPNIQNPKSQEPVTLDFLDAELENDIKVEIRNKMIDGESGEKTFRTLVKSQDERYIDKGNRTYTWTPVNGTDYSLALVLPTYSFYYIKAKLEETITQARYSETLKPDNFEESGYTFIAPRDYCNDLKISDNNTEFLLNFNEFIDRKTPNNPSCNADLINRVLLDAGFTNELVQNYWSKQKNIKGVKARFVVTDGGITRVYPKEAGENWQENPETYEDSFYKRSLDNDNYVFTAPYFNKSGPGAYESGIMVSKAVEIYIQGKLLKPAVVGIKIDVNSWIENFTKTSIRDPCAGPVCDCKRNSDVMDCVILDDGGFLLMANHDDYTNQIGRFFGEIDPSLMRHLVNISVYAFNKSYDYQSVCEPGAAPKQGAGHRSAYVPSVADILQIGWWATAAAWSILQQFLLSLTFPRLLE
# Sequence (P54289 957-1103 partner limits assumed): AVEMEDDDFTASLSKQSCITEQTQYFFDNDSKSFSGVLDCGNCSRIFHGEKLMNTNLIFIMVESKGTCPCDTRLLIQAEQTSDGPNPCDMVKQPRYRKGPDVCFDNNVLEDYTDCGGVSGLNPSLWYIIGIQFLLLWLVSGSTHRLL
# protocol.text: Calcium current (ICa) block, whole-cell patch clamp in isolated human atrial myocytes
# Type: cell-based
# condition.notes: ratio of IC50 at 0.1 Hz, derivative vs. dantrolene
test.readout: Fold Difference (Parent vs. Derivative)

1) COCCOCCOCCOCCOCCOCCOCCOc1cc([N+](=O)[O-])ccc1-c1ccc(C=NN2CC(=O)NC2=O)o1 [mPEG7-O-Dantrolene, mPEG7-O-dantrolene]
444
2) COCCOCCOCCN1C(=O)CN(N=Cc2ccc(-c3ccc([N+](=O)[O-])cc3)o2)C1=O [mPEG3-N-Dantrolene, mPEG3-N-dantrolene]
1067
3) COCCOCCOCCOCCOCCOc1cc([N+](=O)[O-])ccc1-c1ccc(C=NN2CC(=O)NC2=O)o1 [mPEG5-O-Dantrolene, mPEG5-O-dantrolene]
522
4) COCCOCCOCCOCCOCCN1C(=O)CN(N=Cc2ccc(-c3ccc([N+](=O)[O-])cc3)o2)C1=O [mPEG5-N-Dantrolene, mPEG5-N-dantrolene]
260
5) COCCOCCOCCOc1cc([N+](=O)[O-])ccc1-c1ccc(C=NN2CC(=O)NC2=O)o1 [mPEG3-O-Dantrolene, mPEG3-O-dantrolene]
1144
6) COCCOCCOCCOCCOCCOCCOCCN1C(=O)CN(N=Cc2ccc(-c3ccc([N+](=O)[O-])cc3)o2)C1=O [mPEG7-N-Dantrolene, mPEG7-N-dantrolene]
2

---

Property: pKa; scope: individual molecules
# protocol.text: pKa and LogP determination with a Sirius GLPKa instrument
# Format: physicochemical
Counter-ions that a name gives are not always drawn.
test.readout: pKa

1. COCCOCCOCCOCCOCCOCCOCCOc1cc([N+](=O)[O-])ccc1-c1ccc(C=NN2CC(=O)NC2=O)o1
7.32
2. O=C1CN(/N=C/c2ccc(-c3ccc([N+](=O)[O-])cc3)o2)C(O)=N1 [Dantrolene sodium salt, reference compound]
7.11
3. COCCOCCOCCOc1cc([N+](=O)[O-])ccc1-c1ccc(C=NN2CC(=O)NC2=O)o1
8.69
4. COCCOCCOCCOCCOCCOc1cc([N+](=O)[O-])ccc1-c1ccc(C=NN2CC(=O)NC2=O)o1
7.49

---

Property: log10(IC50); scope: individual compounds
# assay.system: cardiac L-type calcium channel (Homo sapiens)
# Construct: Human myocytes were obtained from specimens of human right atrial appendage obtained during surgery; endogenous in cells
# protocol.text: Calcium current (ICa) block, whole-cell patch clamp in isolated human atrial myocytes
# condition.notes: read-out: IC50 at 0.1 Hz
test.readout: log10(IC50) (log10 of the value in mM)

1) COCCOCCOCCOCCOCCOCCOCCN1C(=O)CN(N=Cc2ccc(-c3ccc([N+](=O)[O-])cc3)o2)C1=O
-0.71
2) COCCOCCOCCOCCOCCOCCOCCOc1cc([N+](=O)[O-])ccc1-c1ccc(C=NN2CC(=O)NC2=O)o1
1.66
3) O=C1CN(/N=C/c2ccc(-c3ccc([N+](=O)[O-])cc3)o2)C(O)=N1
-0.98
4) COCCOCCOCCOCCOCCN1C(=O)CN(N=Cc2ccc(-c3ccc([N+](=O)[O-])cc3)o2)C1=O
1.43
5) COCCOCCOCCOCCOCCOc1cc([N+](=O)[O-])ccc1-c1ccc(C=NN2CC(=O)NC2=O)o1
1.73
